Just for reference, ChEMBL document CHEMBL1123894 is where these values come from.

target: Delta-type opioid receptor (Mus musculus, UniProt P32300); test: Inhibitory activity towards electrically induced contractions in mouse vas deferens expressing delta opioid receptor
Sequence (P32300 whole entry): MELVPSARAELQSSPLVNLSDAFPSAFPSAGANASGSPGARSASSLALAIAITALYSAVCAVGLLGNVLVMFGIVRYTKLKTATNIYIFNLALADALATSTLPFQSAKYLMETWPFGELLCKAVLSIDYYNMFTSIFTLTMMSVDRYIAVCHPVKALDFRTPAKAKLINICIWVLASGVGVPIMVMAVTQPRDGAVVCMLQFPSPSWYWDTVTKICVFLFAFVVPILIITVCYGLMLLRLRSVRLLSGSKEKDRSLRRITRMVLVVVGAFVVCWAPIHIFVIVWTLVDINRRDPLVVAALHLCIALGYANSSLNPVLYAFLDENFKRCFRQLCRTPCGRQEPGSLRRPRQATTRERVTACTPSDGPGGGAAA
Bridge positions count the residues as written; N and C are the ends. Square brackets hold non-standard residues; d marks the D form. Peptide text beside a SMILES is read from it. Orn = NCCC[C@H](N)C(=O)O
Readout kind: IC50 (µM)
Numbers only, in µM.

NC(=O)[C@@H]1CCNC(=O)C[C@@H](NC(=O)[C@@H](N)Cc2ccc(O)cc2)C(=O)N[C@@H](Cc2ccccc2)C(=O)N1    2.03
NC(=O)[C@H]1CC(=O)NCCC[C@@H](NC(=O)[C@@H](N)Cc2ccc(O)cc2)C(=O)N[C@@H](Cc2ccccc2)C(=O)N1    4.81
NC(=O)[C@@H]1CCCNC(=O)C[C@@H](NC(=O)[C@@H](N)Cc2ccc(O)cc2)C(=O)N[C@@H](Cc2ccccc2)C(=O)N1 (H-Y[dD]F[Orn]-NH2; lactam 2-4)    8.57

Note: attention shifts to another entry.
Task: Endpoint output: IC50 of CN1C(=O)[C@H](NC(=O)[C@@H](N)Cc2ccc(O)cc2)CCCNC(=O)C[C@@H](C(N)=O)NC(=O)[C@@H]1Cc1ccccc1 . Value?
Result: 1.38

----------
target: Mu-type opioid receptor (Cavia porcellus, UniProt P97266); assay: Inhibitory activity towards electrically induced contractions in guinea pig ileum expressing Opioid receptor mu 1; format: tissue-based
Sequence (P97266 whole entry): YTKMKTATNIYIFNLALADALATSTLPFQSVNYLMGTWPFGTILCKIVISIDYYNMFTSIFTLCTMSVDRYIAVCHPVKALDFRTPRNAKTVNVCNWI
Bridge positions count the residues as written; N and C are the ends. Square brackets hold non-standard residues; d marks the D form. Peptide text beside a SMILES is read from it. Orn = NCCC[C@H](N)C(=O)O
Exercise: for every item that follows, state its recorded pIC50.
Give bare numbers, as −log10 of the molar value.

// solved cases for pIC50 follow
NC(=O)[C@@H]1CCCNC(=O)C[C@@H](NC(=O)[C@@H](N)Cc2ccc(O)cc2)C(=O)N[C@@H](Cc2ccccc2)C(=O)N1 (H-Y[dD]F[Orn]-NH2; lactam 2-4)    6.28
NC(=O)[C@@H]1CCNC(=O)C[C@@H](NC(=O)[C@@H](N)Cc2ccc(O)cc2)C(=O)N[C@@H](Cc2ccccc2)C(=O)N1    6.55

Note: attention shifts to another entry.
Task: Endpoint output: pIC50 of NC(=O)[C@@H]1CC(=O)NCCC[C@@H](NC(=O)[C@@H](N)Cc2ccc(O)cc2)C(=O)N[C@@H](CCc2ccccc2)C(=O)N1 . Value?
Result: 6.95

----------
target: Mu-type opioid receptor (Cavia porcellus, UniProt P97266); experiment: Inhibitory activity towards electrically induced contractions in guinea pig ileum expressing Opioid receptor mu 1; assay type: tissue-based
Readout kind: IC50 (µM)
One number for each entry, in µM.

// solved cases for IC50 follow
NC(=O)[C@H]1CC(=O)NCCC[C@@H](NC(=O)[C@@H](N)Cc2ccc(O)cc2)C(=O)N[C@@H](Cc2ccccc2)C(=O)N1    0.632
NC(=O)[C@@H]1CC(=O)NCCC[C@@H](NC(=O)[C@@H](N)Cc2ccc(O)cc2)C(=O)N[C@@H](Cc2ccc([N+](=O)[O-])cc2)C(=O)N1    2.34
NC(=O)[C@@H]1CC(=O)NCCC[C@H](NC(=O)[C@@H](N)Cc2ccc(O)cc2)C(=O)N[C@@H](Cc2ccccc2)C(=O)N1    16.8
CN1C(=O)[C@H](NC(=O)[C@@H](N)Cc2ccc(O)cc2)CCCNC(=O)C[C@@H](C(N)=O)NC(=O)[C@@H]1Cc1ccccc1    6.46

Note: attention shifts to another entry.
Task: Endpoint output: IC50 of NC(=O)[C@@H]1CC(=O)NCCC[C@@H](NC(=O)[C@@H](N)Cc2ccc(O)cc2)C(=O)N[C@@H](C2CCCCC2)C(=O)N1 . Value?
Result: 18.4
